Biological target: adrenergic β2 (Homo sapiens, UniProt P07550)
Construct: Eurofins DiscoverX, USA
Sequence (P07550 whole entry): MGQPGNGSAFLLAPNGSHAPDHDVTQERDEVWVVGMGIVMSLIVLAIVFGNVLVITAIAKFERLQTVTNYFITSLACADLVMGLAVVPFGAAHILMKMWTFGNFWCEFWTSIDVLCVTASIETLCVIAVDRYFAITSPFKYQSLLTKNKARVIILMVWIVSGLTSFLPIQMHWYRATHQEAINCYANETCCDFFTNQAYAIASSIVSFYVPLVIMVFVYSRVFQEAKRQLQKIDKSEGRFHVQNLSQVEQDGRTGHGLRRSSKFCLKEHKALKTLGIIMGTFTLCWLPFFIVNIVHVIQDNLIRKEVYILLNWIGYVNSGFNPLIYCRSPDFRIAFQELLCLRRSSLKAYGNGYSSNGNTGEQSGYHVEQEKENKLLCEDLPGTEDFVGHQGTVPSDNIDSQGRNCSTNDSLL
Test: Functional selectivity panel, adrenergic β2
Type: biochemical
Conditions: read-out: adrenergic β2 IC50
measured_attribute: IC50 (µM)
Give the number; µM is assumed, so skip it.

Prompt: For the compound O=C(Cc1cncc(-n2cc(Cl)c3cc(Cl)cc(Cl)c32)c1)N[C@@H]1COC[C@H]1O [Compound 661] , what IC50 is on record?
Response: 4

----------
Test system: CHO-K1 cells
Assay: In vitro micronucleus
Assay type: cell-based
Settings: Plate 1 with S9, 3 hours; read-out: Cytotoxicity (%) Absolute EC50
measured_attribute: CC50

Prompt: CC50 for O=C(Cc1nccc(-n2cc(Cl)c3cc(Cl)cc(Cl)c32)n1)NC1COCC1O (stereo not shown) ?
Response: > 200 µM
